Values compiled from ChEMBL document CHEMBL1132839.

Biological target: GABA-A receptor; anion channel
Test: Binding affinity against GABA-A benzodiazepine receptor
value kind: Ki (nM)

compound	assay system	value kind	scale unit	reported value
COc1ccc2nc(N3C(=O)NC4CCCCCC43)oc2c1 (stereo not drawn)	GABA-A receptor; anion channel	Ki	nM	254
Oc1nc2c(n1-c1nc3ccc(F)c(F)c3o1)CCCC2	GABA-A receptor; anion channel	Ki	nM	21
COc1ccc2nc(-n3c(O)nc4ccccc43)oc2c1	GABA-A receptor; anion channel	Ki	nM	610

P = Cc1ccc2nc(N3C(=O)NC4CCCCCC43)oc2c1 (stereo not drawn)
Q = Oc1nc2ccccc2n1-c1nc2ccccc2o1
Could you tell me which of these two has the smaller Ki figure? First: P Second: Q Indicate which entry you chose by stating its label.
Q

A = O=C1NC2CCCCCC2N1c1nc2c(F)cc(F)cc2o1 (stereo not drawn)
B = O=C1NC2CCCCCC2N1c1nc2ccccc2o1 (stereo not drawn)
Which numeric Ki is bigger, that of A or that of B ? Return value: the label identifying the chosen record.
A

A = Oc1nc2ccccc2n1-c1nc2cccc(F)c2o1
B = Oc1nc2ccc(F)cc2n1-c1nc2cccc(F)c2o1
C = Oc1nc2c(n1-c1nc3cc(F)ccc3o1)CCCC2
List from greatest to least Ki. When ranking, write the labels in the order the request describes.
A, C, B
